A collection of molecules and their measured log10 of IC50
subject of test: interaction between recombinant K-Ras4B G12C mutant protein and cRAF RAS-binding domain (cRAF-RBD) (Homo sapiens, UniProt P01116, G12C)
Sequence (P01116 with tags, fused parts or gaps isoform P01116-2 G12C): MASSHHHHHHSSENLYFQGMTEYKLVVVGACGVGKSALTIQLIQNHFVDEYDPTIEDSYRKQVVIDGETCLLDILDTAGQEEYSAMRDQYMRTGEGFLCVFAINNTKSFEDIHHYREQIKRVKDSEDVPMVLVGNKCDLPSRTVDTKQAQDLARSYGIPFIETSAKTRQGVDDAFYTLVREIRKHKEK
assay method text: Inhibitory activity on interaction between KRAS G12C and cRAF (Alpha technology)
experimental conditions: GMPPNP-bound KRAS G12C incubated with compound at 25° C. for 1 hour, then cRAF-RBD; Alpha signal
Transform log10 | Measure IC50 | Unit nM

molecule	log10 of IC50
Cc1nc2c(Cl)c(-c3cccn4c(C(=O)c5cc(F)c(NC(=O)/C=C/CNC6CCOCC6)c(F)c5)ccc34)c(C(F)(F)F)cc2n1C (single isomer, unassigned) [Example 57-1]	1.63
COc1c(-c2cccn3c(C(=O)c4cc(F)c(NC(=O)/C=C/CNC(C)(C)C)c(F)c4)ccc23)c(C)cc2c1nc(C)n2C (single isomer, unassigned) [Example 40-2]	1.32
Cc1cc2c(nc(CC#N)n2C)c(Cl)c1-c1cccn2c(C(=O)c3cc(F)c(NC(=O)/C=C/CNC(C)(C)C)c(F)c3)ccc12	1.81
COc1cc2c(cc1-c1cccn3c(C(=O)c4cc(F)c(NC(=O)/C=C/CN[C@H]5CC[C@H](OC)CC5)c(F)c4)ccc13)ncn2C	1.76
COc1cc(-c2cncn2C)cc(Cl)c1-c1cccn2c(C(=O)c3cc(F)c(NC(=O)/C=C/CN[C@H]4CC[C@H](OC)CC4)c(F)c3)ccc12	1.93
Cc1cc2c(ncn2C)c(Cl)c1-c1cccn2c(C(=O)c3cc(F)c(NC(=O)/C=C/CNC4CCOCC4)c(F)c3)ccc12 (single isomer, unassigned) [Example 27-1]	1.40
CO[C@H]1CC[C@H](NC/C=C/C(=O)Nc2c(F)cc(C(=O)c3ccc4c(-c5c(C6CC6)cc6c(nc(C)n6C)c5Cl)cccn34)cc2F)CC1	1.89
COc1c(-c2cccn3c(C(=O)c4cc(F)c(NC(=O)/C=C/CNC5(C)CC5)c(F)c4)c(C)nc23)c(C(F)(F)F)cc2c1nc(C)n2C (single isomer, unassigned) [Example 109-2]	3.08

Qu. Requested field: log10 of IC50. Item: COCc1nc2c(Cl)c(-c3cccn4c(C(=O)c5cc(F)c(NC(=O)/C=C/CNC(C)(C)C)c(F)c5)ccc34)c(C)cc2n1C
Ans. 1.60

Qu. Please give the result for Cn1cnc2c(Cl)c(-c3cccn4c(C(=O)c5cc(F)c(NC(=O)/C=C/CNC(C)(C)C)c(F)c5)ccc34)c(Cl)cc21 (single isomer, unassigned) [Example 20-1] too.
Ans. 2.30

Qu. Now give it for CO[C@H](C)c1nc2c(Cl)c(-c3cccn4c(C(=O)c5cc(F)c(NC(=O)/C=C/CNC(C)(C)C)c(F)c5)ccc34)c(C)cc2n1C (single isomer, unassigned) [Example 49] too.
Ans. 1.28

---

subject of test: interaction between recombinant K-Ras4B G12C mutant protein and cRAF RAS-binding domain (cRAF-RBD) (Homo sapiens, UniProt P01116, G12C)
assay method text: Inhibitory activity on interaction between KRAS G12C and cRAF (Alpha technology)
experimental conditions: GMPPNP-bound KRAS G12C incubated with compound at 25° C. for 1 hour, then cRAF-RBD; Alpha signal
measurement name: log10(IC50) (log10 of the value in nM)
The base-10 logarithm of IC50, taken with IC50 in nM, is what appears here.

Completed entries (count: 3):
compound	log10(IC50)
COc1c(-c2cccn3c(C(=O)c4cc(F)c(NC(=O)/C=C/CNC5(C)CC5)c(F)c4)cnc23)c(C(F)(F)F)cc2c1nc(C)n2C (single isomer, unassigned) [Example 105-2]	3.16
CCc1nc2c(-c3c(C(F)(F)F)cc4c(nc(C)n4C)c3OC)cccn2c1C(=O)c1cc(F)c(NC(=O)/C=C/CN[C@H]2CC[C@H](OC)CC2)c(F)c1 (single isomer, unassigned) [Example 102-2]	3.39
COc1c(-c2cccn3c(C(=O)c4cc(F)c(NC(=O)/C=C/CN[C@H]5CC[C@H](OC)CC5)c(F)c4)ccc23)c(C)cc2c1nc(C)n2C (single isomer, unassigned) [Example 39-2]	1.51

Qu. Returns the measured log10(IC50) for the input compound. Input: CO[C@H](C)c1nc2c(Cl)c(-c3cccn4c(C(=O)c5cc(F)c(NC(=O)/C=C/CN[C@H]6CC[C@H](OC)CC6)c(F)c5)ccc34)c(C)cc2n1C (single isomer, unassigned) [Example 48]
Ans. 2.04

Qu. Cool, now Cc1cc2c(ncn2C)c(Cl)c1-c1cccn2c(C(=O)c3cc(F)c(NC(=O)/C=C/CNC4CCOCC4)c(F)c3)ccc12 (single isomer, unassigned) [Example 27-2]
Ans. 2.08

Qu. What about COCC(C)(C)NC/C=C/C(=O)Nc1c(F)cc(C(=O)c2ccc3c(-c4cc5ncn(C)c5cc4C(F)(F)F)cccn23)cc1F [Example 8] ?
Ans. 1.95

Qu. Entry to check: CO[C@H]1CC[C@H](NC/C=C/C(=O)Nc2c(F)cc(C(=O)c3ccc4c(-c5c(C)cc6c(nc(C)n6C)c5Cl)cccn34)cc2F)CC1 (single isomer, unassigned) [Example 19-2]
Ans. 2.15

Qu. Also need COc1cc2c(ncn2C)c(Cl)c1-c1cccn2c(C(=O)c3cc(F)c(NC(=O)/C=C/CN[C@H]4CC[C@H](OC)CC4)c(F)c3)ccc12 (single isomer, unassigned) [Example 41-1] , thanks.
Ans. 1.72
